Each entry below lists one item and its recorded IC50 value.
assay.target: Large T antigen (Simian virus 40, UniProt P03070);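 also: Confirmatory-stage PubChem screen for compounds that inhibit SV40 T antigen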
Sequence (P03070 whole entry): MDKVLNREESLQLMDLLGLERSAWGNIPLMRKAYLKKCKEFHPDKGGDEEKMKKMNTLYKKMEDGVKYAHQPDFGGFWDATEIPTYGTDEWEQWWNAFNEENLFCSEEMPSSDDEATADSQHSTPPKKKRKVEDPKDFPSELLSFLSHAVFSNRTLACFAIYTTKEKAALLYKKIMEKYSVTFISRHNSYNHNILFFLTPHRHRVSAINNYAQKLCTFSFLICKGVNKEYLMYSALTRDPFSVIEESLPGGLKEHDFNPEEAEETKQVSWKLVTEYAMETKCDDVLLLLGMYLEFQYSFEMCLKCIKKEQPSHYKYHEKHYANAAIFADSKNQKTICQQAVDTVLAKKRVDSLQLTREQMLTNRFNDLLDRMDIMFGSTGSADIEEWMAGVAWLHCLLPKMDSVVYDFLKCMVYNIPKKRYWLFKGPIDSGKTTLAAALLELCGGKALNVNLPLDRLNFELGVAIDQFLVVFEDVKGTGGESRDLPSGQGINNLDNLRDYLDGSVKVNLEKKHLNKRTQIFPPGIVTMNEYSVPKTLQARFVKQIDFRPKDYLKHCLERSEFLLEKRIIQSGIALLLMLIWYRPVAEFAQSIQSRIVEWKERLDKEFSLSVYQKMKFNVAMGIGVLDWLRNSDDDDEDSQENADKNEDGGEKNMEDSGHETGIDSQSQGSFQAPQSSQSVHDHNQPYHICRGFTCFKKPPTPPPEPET
Format: functional, Betapolyomavirus macacae
The source made the active and inactive calls.

> print(dat)
                                   compound                              assay.target  quantity.name     readout.value
1  COc1cccc2c1NC(C(=O)O)C1CC=CC21 (centres undefined)  Large T antigen (Simian virus 40, UniProt P03070)           IC50  42.5 µM (active)

Challenge: # IC50 lookup, item Sc1nnc(NCCCN2CCOCC2)s1
Response given: 22.6 µM (active)

Challenge: # IC50 lookup, item COc1cc(/C=C2\SC(=S)N(NC(=O)c3cccnc3)C2=O)ccc1O
Response given: 8.49 µM (active)

Challenge: # IC50 lookup, item Nc1ccc(Sc2ccccc2CC(=O)O)cc1
Response given: > 100 µM (active)

Challenge: # IC50 lookup, item COc1cc(/C=C2\SC(=S)N(NS(=O)(=O)c3ccccc3)C2=O)ccc1O
Response given: 14.5 µM (active)

====

assay.target: Histone-lysine N-methyltransferase NSD2 (Homo sapiens)
Sequence (O96028 whole entry): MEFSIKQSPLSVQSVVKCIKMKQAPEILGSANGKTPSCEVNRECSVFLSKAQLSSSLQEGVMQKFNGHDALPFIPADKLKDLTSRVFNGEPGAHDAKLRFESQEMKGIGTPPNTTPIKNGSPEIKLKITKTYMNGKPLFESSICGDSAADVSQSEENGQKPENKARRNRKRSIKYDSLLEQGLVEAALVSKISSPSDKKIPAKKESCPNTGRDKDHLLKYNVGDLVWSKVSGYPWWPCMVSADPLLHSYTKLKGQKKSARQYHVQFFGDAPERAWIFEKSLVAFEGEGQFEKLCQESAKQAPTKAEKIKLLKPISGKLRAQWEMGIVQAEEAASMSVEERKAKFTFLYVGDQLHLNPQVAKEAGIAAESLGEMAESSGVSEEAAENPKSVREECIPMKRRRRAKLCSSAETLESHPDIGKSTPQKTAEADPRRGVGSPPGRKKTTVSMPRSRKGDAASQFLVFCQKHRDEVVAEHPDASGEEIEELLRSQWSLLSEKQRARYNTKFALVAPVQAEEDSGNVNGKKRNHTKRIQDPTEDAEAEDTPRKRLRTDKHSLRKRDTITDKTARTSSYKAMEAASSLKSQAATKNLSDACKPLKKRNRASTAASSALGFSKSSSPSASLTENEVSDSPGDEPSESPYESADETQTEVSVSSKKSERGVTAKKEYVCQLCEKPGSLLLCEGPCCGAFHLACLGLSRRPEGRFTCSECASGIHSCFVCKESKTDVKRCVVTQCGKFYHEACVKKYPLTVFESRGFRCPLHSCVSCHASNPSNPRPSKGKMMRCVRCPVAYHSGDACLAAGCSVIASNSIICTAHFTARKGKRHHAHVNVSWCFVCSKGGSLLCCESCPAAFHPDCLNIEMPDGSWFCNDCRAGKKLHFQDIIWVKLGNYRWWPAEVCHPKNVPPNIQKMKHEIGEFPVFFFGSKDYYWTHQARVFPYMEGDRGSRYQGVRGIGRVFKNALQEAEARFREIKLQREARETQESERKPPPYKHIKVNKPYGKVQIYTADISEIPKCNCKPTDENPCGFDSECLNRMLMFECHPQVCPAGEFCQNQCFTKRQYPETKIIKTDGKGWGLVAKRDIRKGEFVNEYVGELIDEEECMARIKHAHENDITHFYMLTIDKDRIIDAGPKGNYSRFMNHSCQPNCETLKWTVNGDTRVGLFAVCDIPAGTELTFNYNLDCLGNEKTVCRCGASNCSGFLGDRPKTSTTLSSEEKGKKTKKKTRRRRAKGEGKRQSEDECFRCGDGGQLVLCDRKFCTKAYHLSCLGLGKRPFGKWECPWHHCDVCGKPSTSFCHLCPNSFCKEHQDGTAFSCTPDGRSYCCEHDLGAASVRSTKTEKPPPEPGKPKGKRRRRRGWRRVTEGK
Assay type: biochemical
Calls of active or inactive are those of the source.
Permitted responses: active, inactive

Some solved entries appear below for comparison.
> print(dat)
                                   molecule  class.assignment
1  CC(C)(C)c1cc[n+](C2=C([N-]S(=O)(=O)c3cccs3)C(=O)c3ccccc3C2=O)cc1            active
2  CNCCCC1Sc2ccccc2Oc2ccccc21 (stereo not given)            active

Challenge: Hi team, can someone confirm the assay call for O=C(CN1CCN(c2ccccc2F)CC1)c1ccc(O)c(O)c1 ?
Response given: active

Challenge: Hi team, can someone confirm the assay call for COc1cc(/C=C(\C#N)c2nc3cc(C)ccc3[nH]2)cc([N+](=O)[O-])c1O ?
Response given: inactive

Challenge: Hi team, can someone confirm the assay call for O=C1/C(=C\c2cccc(O)c2O)SC(=S)N1Cc1ccccc1 ?
Response given: active

====

assay.target: UniProtKB O40947
Sequence (O40947 whole entry): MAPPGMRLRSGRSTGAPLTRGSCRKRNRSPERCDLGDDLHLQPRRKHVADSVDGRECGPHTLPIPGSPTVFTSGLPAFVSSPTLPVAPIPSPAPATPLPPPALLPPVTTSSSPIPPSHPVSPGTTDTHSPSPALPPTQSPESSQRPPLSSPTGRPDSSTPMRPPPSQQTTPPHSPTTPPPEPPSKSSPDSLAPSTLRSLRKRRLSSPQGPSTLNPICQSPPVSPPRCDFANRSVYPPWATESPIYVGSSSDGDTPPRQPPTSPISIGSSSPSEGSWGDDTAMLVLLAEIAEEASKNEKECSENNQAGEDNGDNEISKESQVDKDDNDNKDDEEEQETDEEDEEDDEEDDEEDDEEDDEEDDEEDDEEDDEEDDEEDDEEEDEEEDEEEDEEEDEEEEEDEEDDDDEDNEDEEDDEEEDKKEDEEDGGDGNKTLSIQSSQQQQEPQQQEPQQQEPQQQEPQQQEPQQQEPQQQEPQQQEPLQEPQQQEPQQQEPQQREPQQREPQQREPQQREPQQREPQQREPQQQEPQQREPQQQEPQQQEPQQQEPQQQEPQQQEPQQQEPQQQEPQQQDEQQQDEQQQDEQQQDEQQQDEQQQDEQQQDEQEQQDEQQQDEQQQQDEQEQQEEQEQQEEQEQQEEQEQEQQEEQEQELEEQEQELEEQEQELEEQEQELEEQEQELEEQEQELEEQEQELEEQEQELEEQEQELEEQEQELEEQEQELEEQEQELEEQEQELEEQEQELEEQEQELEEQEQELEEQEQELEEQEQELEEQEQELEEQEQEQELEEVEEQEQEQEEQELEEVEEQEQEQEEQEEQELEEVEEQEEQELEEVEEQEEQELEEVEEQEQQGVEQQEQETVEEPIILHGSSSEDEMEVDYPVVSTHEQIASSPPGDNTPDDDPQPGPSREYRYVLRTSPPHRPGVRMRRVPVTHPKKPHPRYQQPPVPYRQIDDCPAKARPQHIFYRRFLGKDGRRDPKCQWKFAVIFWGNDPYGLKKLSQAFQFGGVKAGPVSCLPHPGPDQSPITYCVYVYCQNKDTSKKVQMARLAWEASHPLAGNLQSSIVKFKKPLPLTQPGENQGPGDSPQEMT
experimental.protocol: KSHV LANA DNA-binding disruption – biochemical, fluorescence polarization, cherry-picked samples, dose response (AID 504725);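 also: fluorescence polarization of a labeled DNA duplex reporting LANA DNA binding; potency is for inhibitors that block LANA binding to the DNA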
Design: species or system Human gammaherpesvirus 8
Activity calls are given as the source filed them.
Each entry below lists one item and its recorded AC50 value.

As a guide, the following entries are already answered.
> print(dat)
                                   molecule  quantity.name     readout.value
1   Clc1ccc(-c2nnc3sc(-c4ccc(Br)o4)nn23)cc1           AC50  27.1 µM (active)
2  Fc1ccc(C2=CC(c3ccc(Br)o3)n3ncnc3N2)cc1 (stereo not given)           AC50  10.8 µM (active)
3  COc1cccc2c1NC(C(=O)O)C1CC=CC21 (stereo not given)           AC50  35.8 µM (active)
4  CN(C)S(=O)(=O)c1cccc(N2C(=O)CC3(CCCCC3)CC2=O)c1           AC50  76.9 µM (active)

Challenge: # AC50 lookup, item Cc1cc(O)c2c(n1)c(C)cc1[nH]c(C)c(C)c12
Response given: 42.3 µM (active)

====

assay.target: UniProtKB Q9H0H5
Sequence (Q9H0H5 whole entry): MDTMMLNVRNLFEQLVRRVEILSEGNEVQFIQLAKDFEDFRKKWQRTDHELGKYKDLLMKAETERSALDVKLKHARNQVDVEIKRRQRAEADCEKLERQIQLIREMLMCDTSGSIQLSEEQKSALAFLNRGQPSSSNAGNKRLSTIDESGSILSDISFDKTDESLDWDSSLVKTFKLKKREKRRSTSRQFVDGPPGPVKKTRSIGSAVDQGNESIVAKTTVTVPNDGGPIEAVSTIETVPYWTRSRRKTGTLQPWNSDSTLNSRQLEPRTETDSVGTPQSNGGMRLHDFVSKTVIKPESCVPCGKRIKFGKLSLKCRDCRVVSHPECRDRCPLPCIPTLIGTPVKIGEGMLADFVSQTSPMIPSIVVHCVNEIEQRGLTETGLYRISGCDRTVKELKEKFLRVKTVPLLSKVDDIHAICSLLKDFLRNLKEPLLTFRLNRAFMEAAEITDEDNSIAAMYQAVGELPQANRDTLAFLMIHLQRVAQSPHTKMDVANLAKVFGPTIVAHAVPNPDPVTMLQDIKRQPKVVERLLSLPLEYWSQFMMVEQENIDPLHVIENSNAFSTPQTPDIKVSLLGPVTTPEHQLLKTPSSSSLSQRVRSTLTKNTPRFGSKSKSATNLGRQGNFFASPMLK
experimental.protocol: blockers of MgcRacGAP-driven Rac1 GTP hydrolysis – biochemical, ADP Hunter fluorescence, primary and confirmatory, confirmation (AID 624330)
Type: functional
The source made the active and inactive calls.
quantity.name: IC50

> print(dat)
                                     smiles  quantity.name     readout.value
1    O=C(Cc1ccc(Cl)cc1)N/N=C/c1ccc(O)c(O)c1           IC50  19.7 µM (active)
2           CCn1cnc2cc(NCc3ccc(OC)cc3)ccc21           IC50  92.1 µM (active)
3  O=C(Nc1ccc(C2=NCCN2)cc1)c1ccc(C(=O)Nc2ccc(C3=NCCN3)cc2)c([N+](=O)[O-])c1           IC50  33.1 µM (active)
4     CCOc1ccc(Nc2ccc(N)c(S(=O)(=O)O)c2)cc1           IC50  68.9 µM (active)
5     COc1ccccc1N1CCN(/N=C/c2ccc(O)cc2O)CC1           IC50    48 µM (active)

Challenge: # IC50 lookup, item COc1cc(/C=N/NC(=O)c2cn(-c3cccc(C)n3)cn2)ccc1O
Response given: 36.1 µM (active)

Challenge: # IC50 lookup, item CC1(C)CNc2cc(N)ccc2S1
Response given: 22.9 µM (active)

Challenge: # IC50 lookup, item O=C1c2ccccc2C(=O)N1/N=C/c1ccc(O)c(O)c1
Response given: 44.5 µM (active)

Challenge: # IC50 lookup, item Cc1ccc(S(=O)(=O)N2CCCCC2)cc1NC(=O)CNCc1ccco1
Response given: 198 µM (active)

Challenge: # IC50 lookup, item Cn1c(-c2ccc3c(c2)OCO3)cnc1NCc1ccccc1Cl
Response given: 72 µM (active)

Challenge: # IC50 lookup, item O=C(N/N=C/c1ccc(F)cc1)c1cc(-c2ccco2)nc2ccccc12
Response given: 108 µM (active)

Challenge: # IC50 lookup, item Cc1cc(C)c(C)c(S(=O)(=O)Nc2ccc(O)cc2)c1C
Response given: 45.7 µM (active)

Challenge: # IC50 lookup, item Nc1cc2c(cc1N)-c1ccccc1C2
Response given: 23 µM (active)
